Entries and their polymerase ribozyme fitness (log ratio)
B1: TPR 5TU (parent)
chain: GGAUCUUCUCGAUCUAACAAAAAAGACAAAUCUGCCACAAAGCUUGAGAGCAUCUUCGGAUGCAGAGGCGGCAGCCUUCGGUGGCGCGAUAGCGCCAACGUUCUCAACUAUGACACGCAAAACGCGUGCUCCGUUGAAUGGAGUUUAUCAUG

- Variants of: B1
- TEST_DESCRIPTION: polymerase ribozyme fitness, log enrichment relative to wild type (log ratio); higher = more active; in vitro selection for triplet polymerase activity
Variants at the floor of the assay were thinned out.
Kindly provide the number alone.

Past entries and their recorded results:
A19C A52G G92C C96A A147C	-3.53
U33G G80C G92A C131A U151A	-4.15
A20C C85U A115U	-1.06
U53A G86A	-2.07
A22G U33G	-3.24

May I ask what polymerase ribozyme fitness (log ratio) has been recorded for C85G C114U ?
-3.49

What does the data say about its polymerase ribozyme fitness (log ratio)? Entry: U82A U127C G152U
-3.97

Fill in the blank: the reported polymerase ribozyme fitness (log ratio) of A20U A40C U55A A73U is ____.
-3.94

So what does the record say about polymerase ribozyme fitness (log ratio) for A49G A52C ?
-1.27
